Values were extracted from ChEMBL document CHEMBL3822389.

Experimental Protocol: Cytotoxicity against human HL60 cells after 72 hrs by MTT assay
Format: functional, cell-based, HL-60
Condition Context: Homo sapiens, HL-60, 72 h
Consider the following molecules and their measured IC50 readings.

>  <Molecule>
O=C1C(O)=C(C(NCCCCl)c2ccc(Cl)cc2Cl)C(=O)c2ccccc21 (stereo not given)

>  <IC50>
> 40 µM

$$$$
>  <Molecule>
Cc1ccc(NC(C2=C(O)C(=O)c3ccccc3C2=O)c2ccccn2)cc1 (stereo not given)

>  <IC50>
> 40 µM

$$$$
>  <Molecule>
O=C1C(O)=C(C(NCCCCl)c2cc(Br)ccc2O)C(=O)c2ccccc21 (stereo not given)

>  <IC50>
8.4 µM

$$$$
>  <Molecule>
CC(C)(C)OC(=O)NCCCNC(C1=C(O)C(=O)c2ccccc2C1=O)c1ccc([N+](=O)[O-])cc1 (stereo not given)

>  <IC50>
> 40 µM

$$$$
>  <Molecule>
CCCCNC(C1=C(O)C(=O)c2ccccc2C1=O)c1ccccn1 (stereo not given)

>  <IC50>
> 40 µM

$$$$
>  <Molecule>
CCCCCCCNC(C1=C(O)C(=O)c2ccccc2C1=O)c1ccccc1 (stereo not given)

>  <IC50>
> 40 µM

$$$$
>  <Molecule>
O=C1C(O)=C(C(NCc2ccccc2)c2cc(Br)ccc2O)C(=O)c2ccccc21 (stereo not given)

>  <IC50>
8.4 µM

$$$$
>  <Molecule>
CC(C)(C)OC(=O)NCCNC(C1=C(O)C(=O)c2ccccc2C1=O)c1ccc([N+](=O)[O-])cc1 (stereo not given)

>  <IC50>
> 40 µM

$$$$
>  <Molecule>
O=C1C(O)=C(C(NCc2ccccc2)c2ccccn2)C(=O)c2ccccc21 (stereo not given)

>  <IC50>
4.8 µM

$$$$
>  <Molecule>
COc1ccc(NC(C2=C(O)C(=O)c3ccccc3C2=O)c2ccccn2)cc1 (stereo not given)

>  <IC50>
> 40 µM

$$$$
